GI50 values by entry
- System: UACC-62
- measurement description: NCI tumour cell line growth inhibition, 48 h
Structures can show the parent of a compound that is named as a salt. Activity calls are given as the source filed them. Rule as the data show it: active = GI50 up to about 1.1 µM and inactive = higher.
metric: GI50

molecule | system name | metric | result
COc1cc(/C=C2\CCC(C)C3=C2NC(=S)NC3c2cc(OC)c(OC)c(OC)c2)cc(OC)c1OC (stereo not given) | UACC-62 | GI50 | 40 µM (inactive)
O=C1NC(c2c(Cl)cccc2Cl)Nc2ccccc21 (stereo not given) | UACC-62 | GI50 | 37 µM (inactive)
Cn1nc(-c2ccccc2)c(C(=O)/C=C/c2ccc(F)cc2)c(N2CCOCC2)c1=O | UACC-62 | GI50 | 18.1 µM (inactive)
Nc1nc(N)c2nc(CNc3ccc(C(=O)O)cc3)[nH]c2n1 | UACC-62 | GI50 | > 100 µM (inactive)
O=C1C=CC[C@H]2O[C@@H](COC(=O)Cc3ccccc3)C[C@H]2O1 | UACC-62 | GI50 | 41.9 µM (inactive)
O=C(Nn1c(-c2ccccc2)nc2ccccc2c1=O)c1ccc(O)cc1 | UACC-62 | GI50 | > 100 µM (inactive)
CC(=O)N1N=C(N)CC1=O | UACC-62 | GI50 | > 100 µM (inactive)
C/C=C1/C(=Cc2[nH]c(C=c3[nH]/c(=C/C4=NC(=O)C(CC)=C4C)c(C)c3CCC(=O)O)c(CCC(=O)O)c2C)NC(=O)C1C (stereo not given) | UACC-62 | GI50 | 8 µM (inactive)
O=C1c2c(O)cccc2-c2nn(CCNCCO)c3ccc(NCCNCCO)c1c23 [LOSOXANTRONE HYDROCHLORIDE] | UACC-62 | GI50 | < 0.0451 µM (active)
CC(=S)NNC(=O)c1ccncc1 | UACC-62 | GI50 | > 100 µM (inactive)

---

- Test system: ACHN
- measurement description: NCI tumour cell line growth inhibition, 48 h
Activity calls are given as the source filed them. Cut-off read from the data, not from the text of the source: active = GI50 up to about 1.1 µM and inactive = higher.
GI50 values by entry
metric: GI50

smiles repr | result
CC(C)(C)c1ccc(O)c(C[N+](C)(C)C)c1 | > 100 µM (inactive)
N#CI1OC(C(F)(F)F)(C(F)(F)F)c2ccccc21 | 18.2 µM (inactive)
Cc1c(C(=O)O)oc2ccc([N+](=O)[O-])cc12 | > 100 µM (inactive)
Cc1ccc(N2C(=O)/C(=C3\Sc4c(nc(C)n(C)c4=O)N3c3ccccc3)SC2=S)cc1 | > 100 µM (inactive)

---

- Test system: MDA-MB-435
- measurement description: NCI tumour cell line growth inhibition, 48 h
Calls of active or inactive are those of the source. No stated cut-off is given here; in the data, active = GI50 up to about 1.1 µM and inactive = higher.
Labels: active, inactive

molecule | system name | cat
COc1c(CC=C(C)C)c(O)c(C(CC(C)C)c2c(O)c(CC=C(C)C)c(O)c(C(C)=O)c2O)c(O)c1C(C)=O (stereo unspecified) | MDA-MB-435 | inactive
OC1C[C@H](c2ccccc2)C2(C(O)c3ccccc3C2O)[C@@H](c2ccccc2)C1 (stereo partly specified) | MDA-MB-435 | inactive
CC(=O)c1sc2n(C)c(=O)c3ccccc3[n+]2c1C | MDA-MB-435 | inactive
Nc1cc2c(c3ccccc13)C(CCl)CN2C(=O)c1cc2cc(NC(=O)c3cc4ccccc4o3)ccc2[nH]1 (stereo unspecified) | MDA-MB-435 | active
Oc1ccc(O)c(CNc2ccccc2)c1 | MDA-MB-435 | inactive
CC(=O)OCC1OC(N2C(=S)N[C@H]([C@@H](O)[C@H](O)[C@H](O)CO)[C@H]2O)C(OC(C)=O)C(OC(C)=O)C1OC(C)=O (stereo partly specified) | MDA-MB-435 | inactive
